assay: chemical genetic growth profiling, strain panel (AID 1159580);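 note: tested at 20 µM; growth read once vehicle control cultures reached saturation at 30 °C; 1 = growth at the plate median or of vehicle wells; lower values mean less growth of the strain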; details: S. cerevisiae deletion strains, growth OD, locus YNR052C, strain pop2
The whole screen tested about 5,500 compounds, of which about 2,000 (36%) were called active. Inconclusive results (about 18%) are left out. Cut-off read from the data, not from the text of the source: active = normalized growth mostly below about 0.91 (no sharp cut-off); inconclusive = no clear call, values can overlap the other calls; inactive = mostly above about 0.92. The list shows a part of the results.
API: response.call in active, inactive

Identify the outcome logged in this assay for the molecule shown: O=C(O)CNCP(=O)(O)O inactive

Continuing:
Identify the outcome logged in this assay for the molecule shown: Oc1ccc(/C=C/c2cc(O)cc(O)c2)cc1 active

Identify the outcome logged in this assay for the molecule shown: Nc1ccc(S(=O)(=O)Nc2nccs2)cc1 inactive

Identify the outcome logged in this assay for the molecule shown: CC1(C)CC2C1CCC1(C)OC2(C)CCC1O (stereo not drawn) inactive

###

assay: chemical genetic growth profiling, strain panel (AID 1159580);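 note: tested at 20 µM; growth read once vehicle control cultures reached saturation at 30 °C; 1 = growth at the plate median or of vehicle wells; lower values mean less growth of the strain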; conditions: S. cerevisiae deletion strains, growth OD, locus YIL125W, strain kgd1
The campaign covered roughly 5,500 compounds. About 2,000 (36%) were called active. Roughly 18% stayed inconclusive and do not appear here. No stated cut-off is given here; in the data, active means normalized growth mostly below about 0.91 (no sharp cut-off); inconclusive means no clear call, values can overlap the other calls; inactive means mostly above about 0.92. The list shows a part of the results.
API: response.call in Y = active, N = inactive

Identify the outcome logged in this assay for the molecule shown: CCOC(=O)CCCCCCCCCCCCC1C=CCC1 (stereo not given) Y

Continuing:
Identify the outcome logged in this assay for the molecule shown: Nc1nccs1 N

Identify the outcome logged in this assay for the molecule shown: OC/C=C/c1ccc(O)c(O)c1 N

Identify the outcome logged in this assay for the molecule shown: CC12CCC3C(CC=C4CC(O)CCC43C)C1CCC2=O (stereo not given) N

Identify the outcome logged in this assay for the molecule shown: C[C@@]12C(=O)OC(=O)[C@]1(C)C1CCC2O1 Y

###

test: chemical genetic growth profiling, strain panel (AID 1159580);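 note: tested at 20 µM; growth read once vehicle control cultures reached saturation at 30 °C; 1 = growth at the plate median or of vehicle wells; lower values mean less growth of the strain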; conditions: S. cerevisiae deletion strains, growth OD, locus YHR200W, strain rpn10, hits give low values
The campaign covered roughly 5,500 compounds. About 2,000 (36%) were called active. Roughly 18% stayed inconclusive and do not appear here. This is one part of the list.
readout.kind: normalized growth
Give bare numbers.

Lab note: each compound below needs its normalized growth filled in.
1. NCCCCN=C(N)N
2. O=C(O)CNCP(=O)(O)O
3. C[C@](N)(Cc1ccc(O)c(O)c1)C(=O)O

[0.987, 1.01, 0.981]

###

assay: chemical genetic growth profiling, strain panel (AID 1159580);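 note: tested at 20 µM; growth read once vehicle control cultures reached saturation at 30 °C; 1 = growth at the plate median or of vehicle wells; lower values mean less growth of the strain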; conditions: S. cerevisiae deletion strains, growth OD, locus YDR137W, strain rgp1
The campaign covered roughly 5,500 compounds. About 2,000 (36%) were called active. Roughly 18% stayed inconclusive and do not appear here. Cut-off read from the data, not from the text of the source: active = normalized growth mostly below about 0.91 (no sharp cut-off); inconclusive = no clear call, values can overlap the other calls; inactive = mostly above about 0.92. Some of the results follow.
API: response.call in YES for active, NO for inactive

Known results for compounds:
Identify the outcome logged in this assay for the compound shown: CC[C@]12CCCN3CCc4c(n(c5ccccc45)C(=O)C1)[C@@H]32 NO

Identify the outcome logged in this assay for the compound shown: C[C@]12CCC3c4ccc(OS(=O)(=O)O)cc4CCC3C1CCC2=O (stereo partly specified) NO

Identify the outcome logged in this assay for the compound shown: C#C[C@]1(O)CCC2C3CCc4cc(O)ccc4C3CC[C@@]21C (stereo partly specified) YES

Continuing:
Identify the outcome logged in this assay for the compound shown: O=C(O)c1cc(=O)c(O)c2c(O)c(O)c(O)cc2c1 YES

Identify the outcome logged in this assay for the compound shown: CC(=O)O[C@H]1CC[C@@]2(C)C(=CCC3C2CC[C@]2(C)C(=O)CCC32)C1 (stereo partly specified) YES

Identify the outcome logged in this assay for the compound shown: O=C(NC(Cc1cc(=O)[nH]c2ccccc12)C(=O)O)c1ccc(Cl)cc1 (stereo unspecified) NO

Identify the outcome logged in this assay for the compound shown: COc1ccc(/C=C/C(=O)c2cc(O)ccc2O)cc1 YES

Identify the outcome logged in this assay for the compound shown: CCn1cc(C(=O)O)c(=O)c2ccc(C)nc21 YES
